System: Mus musculus
Assay: Compound was evaluated in vivo for antileukemic activity in B6D2F1 male mice
Assay type: functional

compound	ILS (%)
COc1cccc2c1C(=O)c1c(O)c3c(c(O)c1C2=O)C[C@@](O)(C(=O)COC(=O)C(CCSC)NC(C)=O)C[C@@H]3OC1CC(NC(=O)C(F)(F)F)C(O)C(C)O1 (stereo not given in full)	136
COc1cccc2c1C(=O)c1c(O)c3c(c(O)c1C2=O)C[C@@](O)(C(=O)COC(=O)C(C)NC(C)=O)C[C@@H]3OC1CC(NC(=O)C(F)(F)F)C(O)C(C)O1 (stereo not given in full)	163
COc1cccc2c1C(=O)c1c(O)c3c(c(O)c1C2=O)C[C@@](O)(C(=O)COC(=O)CNC(C)=O)C[C@@H]3OC1CC(NC(=O)C(F)(F)F)C(O)C(C)O1 (stereo not given in full)	105
COc1cccc2c1C(=O)c1c(O)c3c(c(O)c1C2=O)C[C@@](O)(C(=O)COC(=O)C(Cc1ccccc1)NC(C)=O)C[C@@H]3OC1CC(NC(=O)C(F)(F)F)C(O)C(C)O1 (stereo not given in full)	173
COc1cccc2c1C(=O)c1c(O)c3c(c(O)c1C2=O)C[C@@](O)(C(=O)CO)C[C@@H]3O[C@H]1C[C@H](N)[C@H](O)[C@H](C)O1 [DOXORUBICIN]	145

---

Listed next: entries and their corresponding half-life.
Experiment: Half-life time of the compound
Type: ADME

molecule	unit.name	half-life
COc1cccc2c1C(=O)c1c(O)c3c(c(O)c1C2=O)C[C@@](O)(C(=O)COC(=O)C(CCSC)NC(C)=O)C[C@@H]3OC1CC(NC(=O)C(F)(F)F)C(O)C(C)O1 (some centres undefined)	min	38
COc1cccc2c1C(=O)c1c(O)c3c(c(O)c1C2=O)C[C@@](O)(C(=O)COC(=O)CCC(NC(C)=O)C(N)=O)C[C@@H]3OC1CC(NC(=O)C(F)(F)F)C(O)C(C)O1 (some centres undefined)	min	24
COc1cccc2c1C(=O)c1c(O)c3c(c(O)c1C2=O)C[C@@](O)(C(=O)COC(=O)C(C)NC(C)=O)C[C@@H]3OC1CC(NC(=O)C(F)(F)F)C(O)C(C)O1 (some centres undefined)	min	18
COc1cccc2c1C(=O)c1c(O)c3c(c(O)c1C2=O)C[C@@](O)(C(=O)COC(=O)CNC(C)=O)C[C@@H]3OC1CC(NC(=O)C(F)(F)F)C(O)C(C)O1 (some centres undefined)	min	10
COc1cccc2c1C(=O)c1c(O)c3c(c(O)c1C2=O)C[C@@](O)(C(=O)COC(=O)C(CC(C)C)NC(C)=O)C[C@@H]3OC1CC(NC(=O)C(F)(F)F)C(O)C(C)O1 (some centres undefined)	min	65
COc1cccc2c1C(=O)c1c(O)c3c(c(O)c1C2=O)C[C@@](O)(C(=O)COC(=O)CCC(NC(C)=O)C(=O)O)C[C@@H]3OC1CC(NC(=O)C(F)(F)F)C(O)C(C)O1 (some centres undefined)	min	16
COc1cccc2c1C(=O)c1c(O)c3c(c(O)c1C2=O)C[C@@](O)(C(=O)COC(=O)CNC(=O)c1ccccc1)C[C@@H]3OC1CC(NC(=O)C(F)(F)F)C(O)C(C)O1 (some centres undefined)	min	3.5
COc1cccc2c1C(=O)c1c(O)c3c(c(O)c1C2=O)C[C@@](O)(C(=O)COC(=O)C(Cc1ccccc1)NC(C)=O)C[C@@H]3OC1CC(NC(=O)C(F)(F)F)C(O)C(C)O1 (some centres undefined)	min	14
COc1cccc2c1C(=O)c1c(O)c3c(c(O)c1C2=O)C[C@@](O)(C(=O)COC(=O)CC(NC(C)=O)C(=O)O)C[C@@H]3OC1CC(NC(=O)C(F)(F)F)C(O)C(C)O1 (some centres undefined)	min	18
